Recorded pKd, one value per entry.
target-or-test-system: T1, human α-CGRP 1-37 (WT) (human, C-terminal amide; N-terminal biotin when captured on the SA chip; 125I-labelled in the radioligand assay)
T1 construct: also called α-human
T1 peptide: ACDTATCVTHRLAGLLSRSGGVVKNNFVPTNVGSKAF
test: Biacore, 37°C, Fab over CGRP on SA chip
Description: Biacore assay for affinity determination. […] All Biacore assays were conducted in HBS-EP running buffer (10 mM HEPES pH 7.4, 150 mM NaCl, 3 mM EDTA, 0.005% v/v polysorbate P20). CGRP surfaces were prepared by diluting the N-biotinylated CGRP to a concentration of less than 0.001 mg/mL into HBS-EP buffer and injecting it across the SA sensor chip using variable contact times. […] Samples were typically injected for 1 minute at 100 μL/min and dissociation times of at least 10 minutes were allowed. […]
pKd: −log10 of the molar value.

- binder: "G1 variant M43 Fab (Fab, V domains shown, Fab; constant domains as m1) VH: EVQLVESGGGLVQPGGSLRLSCAASGFTFSNYWISWVRQAPGKGLEWVAEIRSKSDNCATHYAEAVKGRFTISRDNAKNSLYLQMNSLRAEDTAVYYCTVYFDYGLAIQNYWGQGTLVTVSS VL: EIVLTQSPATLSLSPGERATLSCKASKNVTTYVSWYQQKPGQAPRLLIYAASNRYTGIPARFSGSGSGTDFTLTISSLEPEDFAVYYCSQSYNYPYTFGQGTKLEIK"
  pKd: 8.79
- binder: "G1 variant M70 Fab (Fab, V domains shown, Fab; constant domains as m1; printed L561 read as L56I) VH: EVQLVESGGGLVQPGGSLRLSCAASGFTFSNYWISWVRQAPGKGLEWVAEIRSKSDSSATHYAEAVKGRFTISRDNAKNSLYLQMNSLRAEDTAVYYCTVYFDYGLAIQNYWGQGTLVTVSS VL: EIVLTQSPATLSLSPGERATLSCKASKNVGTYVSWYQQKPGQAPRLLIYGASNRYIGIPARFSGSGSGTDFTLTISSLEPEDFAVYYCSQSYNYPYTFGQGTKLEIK"
  pKd: 8.46
- binder: "G1 variant M34 Fab (Fab, V domains shown, Fab; constant domains as m1) VH: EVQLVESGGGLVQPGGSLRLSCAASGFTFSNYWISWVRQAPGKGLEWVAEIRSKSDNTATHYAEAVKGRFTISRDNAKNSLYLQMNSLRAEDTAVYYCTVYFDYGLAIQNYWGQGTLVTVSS VL: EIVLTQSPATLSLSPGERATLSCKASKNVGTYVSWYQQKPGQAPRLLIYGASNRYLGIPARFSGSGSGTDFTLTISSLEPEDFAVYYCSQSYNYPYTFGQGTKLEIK"
  pKd: 8.39
